Experiment: E. coli acrAB mutant growth effects, primary screen, E. coli filamentation inducers, strain DRC39, OD650, 48 h (AID 1179);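 also: screen aims at cell division blockers that make cells filament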
Conditions: E. coli DRC39 delta-acrAB growth, higher = more signal, called active from +8 up or from −8 down
Listed below: z-score values for each entry.
Respond numerically, and do not add a unit to the figure.

compound	z-score
O=C1[C@H]2[C@H]3[C@H](O)[C@H](O)CC(=NOCc4ccccc4)[C@@H]3CC[C@H]2C(=O)N1C1CCCCC1	-0.881
COC(=O)CC=C[C@H](C)[C@@H](OCc1ccccc1Br)C(C)C	0.661
CO[C@H]1COC(=O)[C@@H]2CCCN2C(=O)[C@@H](C)COC(=O)CC=C[C@@H]1C	0.362
COc1cccc([C@@H]2Oc3ccc(Br)cc3C(=O)[C@H]2O)c1	0.139
Cn1cccc1C(O)C1C=CC2C(=O)NC(=O)C2N1Nc1ccccn1 (centres undefined)	-0.204
CC[C@@H](c1ccccc1)n1c(=O)n2n(c1=O)[C@H]1[C@H](O)[C@@H]3O[C@@H]3C(=NOCC=C(C)CCC=C(C)C)[C@H]1CC2	-1.98
CO[C@@H]1COC(=O)CC=C[C@@H](C)COC(=O)[C@H](COCc2ccccc2)NC(=O)CC=C[C@H]1C	-0.0248
O=C1[C@H]2[C@H]3[C@H](O)[C@H](O)CC(=NOC[C@@H](O)COCc4ccco4)[C@H]3CC[C@H]2C(=O)N1c1cccc(Oc2ccccc2)c1	1.33

The recorded z-score for entry `C[C@@H]1C=CCC(=O)OC[C@H](C)C(=O)OC[C@H]2O[C@H]1C=C[C@H]2O` equals -0.249

====

Experiment: S. cerevisiae growth modulation with rapamycin, primary screen, strain BY4716, OD600, 96 h (AID 1091); also: test concentration not given here
Settings: higher = more signal, called active from +8 up or from −8 down
Listed below: z-score values for each entry.
Respond numerically, and do not add a unit to the figure.

Please review the entries below; each comes with its answer.
molecule	z-score
CC1(C)OCC(C(O)C2=CCCCC2=O)CO1 (stereo unspecified)	0.856
CCCC[C@@H]1C[C@H]1[C@@H](NS(=O)(=O)c1cccc2cccnc12)c1ccc(-c2ccccc2)cc1	0.676
CCOC(=O)NN=C1C[C@@H](O)[C@@H](O)[C@@H]2[C@@H]3C(=O)N(C(C)(C)C)C(=O)[C@@H]3CC[C@@H]12	-0.626
CO[C@H]1COC(=O)[C@@H]2CCCN2C(=O)CC=C[C@@H](C)[C@H](OC)COC(=O)CC=C[C@@H]1C	-0.611
COC(=O)C1=C(C)[C@@H](O)[C@@H](C)[C@H](c2c(OC)c(OC)c(C)c(OC)c2OC)O1	-0.22

--- query ---
The recorded z-score for entry `Cc1ccc(S(=O)(=O)N[C@@H]2COC(=O)[C@H](C)COC(=O)CC=C[C@H]2C)cc1` equals 1.2

====

Experiment: binders of probe aFSTL3 on microarray, primary screen, stem cell growth factor project, biochemical, small-molecule microarray, fluorescence 635/667 (AID 1064);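 also: measures binding of the biotinylated anti-FSTL3 antibody to printed compounds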
Conditions: higher = more signal
We use -0.1 as the dividing line for composite z-score: on or above the line is yes (1), below is no (0).

Below, 5 molecules whose answers are already recorded.
molecule	group
O[C@@H](Cc1ccccc1)[C@H]1C2C=CCCC(c3ccccc3)=C2CN1Cc1cccc(Cl)c1 (stereo partly specified)	no (0)
CC(C)NC(=O)[C@@H]1c2ccccc2C(=O)N(CC23CC4CC(CC(C4)C2)C3)[C@H]1c1ccc(CO)cc1	no (0)
CCOC(=O)NN=C1C[C@@H](O)[C@@H](O)[C@@H]2[C@@H]3C(=O)N(C4CCCCC4)C(=O)[C@@H]3CC[C@@H]12	no (0)
C=CCC(OC(C)=O)[C@@H]1[C@@H](N(Cc2cc3ccccc3o2)C(=O)Cc2ccc(F)cc2)c2cc(OCCCO)ccc2N1C(=O)Cc1ccc(OC)cc1 (stereo partly specified)	no (0)
COCCOC(=O)N1C(=O)[C@@]2(c3cc(C#Cc4ccc(OC)cc4)ccc31)[C@H](c1ccc(O)cc1)N1[C@H](c3ccccc3)[C@H](c3ccccc3)OC(=O)[C@H]1[C@@H]2C(N)=O	no (0)

As a next step, examine the molecule that follows.
Enquiry: # bool: composite z-score of `O=C1O[C@@H](c2ccccc2)[C@@H](c2ccccc2)N2[C@@H](c3ccc(OCCO)cc3)[C@]3(C(=O)Nc4ccc(C#CCCO)cc43)[C@@H](C(=O)N3CCCCCCC3)[C@H]12` >= -0.1
Return: yes (1)
